For each record, write down the corresponding Papp A→B.
Assay: Caco-2 cell monolayer membrane transport assay
Conditions: human, Caco-2, Papp A-B, Sample-01, Caco-2; A-B; Sample-01
Numeric answer only, unit ×10⁻⁶ cm/s assumed.

Task: Field request: Papp A→B | item: COC(=O)O[C@H]1C[C@H]2OC[C@@]2(OC(C)=O)[C@H]2[C@H](OC(=O)c3ccccc3)[C@]3(O)C[C@H](OC(=O)[C@H](O)[C@@H](NC(=O)c4ccccc4)c4ccccc4)C(C)=C([C@@H](OC)C(=O)[C@]12C)C3(C)C
Result: 3.23

Task: Same thing, different molecule: CO[C@H]1C(=O)[C@]2(C)[C@@H](OC(=O)N(C)C)C[C@H]3OC[C@@]3(OC(C)=O)[C@H]2[C@H](OC(=O)c2ccccc2)[C@]2(O)C[C@H](OC(=O)[C@H](O)[C@@H](NC(=O)c3ccccc3)c3ccccc3)C(C)=C1C2(C)C
Result: 3.16

Task: Next up: COC(=O)O[C@H]1C(=O)[C@]2(C)[C@@H](OC)C[C@H]3OC[C@@]3(OC(C)=O)[C@H]2[C@H](OC(=O)c2ccccc2)[C@]2(O)C[C@H](OC(=O)[C@H](O)[C@@H](NC(=O)c3ccccc3)c3ccccc3)C(C)=C1C2(C)C
Result: 4.44

Task: Queued: CO[C@H]1C[C@H]2OC[C@@]2(OC(C)=O)[C@H]2[C@H](OC(=O)c3ccccc3)[C@]3(O)C[C@H](OC(=O)[C@H](O)[C@@H](NC(=O)OC(C)(C)C)c4ccccc4)C(C)=C([C@@H](OC(=O)N(C)C)C(=O)[C@]12C)C3(C)C
Result: 9

====

Test: In vivo oral bioavailability assay (pharmacokinetics)
Parameters: species or system S.D. rats
Details: male, S.D., plasma; rat; intravenous administration 5 mg/kg
endpoint: Tmax (h)
Respond with the bare value in h.

Task: Give the measured Tmax of CO[C@H]1C(=O)[C@]2(C)[C@@H](OC(=O)N(C)C)C[C@H]3OC[C@@]3(OC(C)=O)[C@H]2[C@H](OC(=O)c2ccccc2)[C@]2(O)C[C@H](OC(=O)[C@H](O)[C@@H](NC(=O)OC(C)(C)C)c3ccccc3)C(C)=C1C2(C)C [PCMI-31] .
Result: 0

====

Experiment: In vivo oral bioavailability assay (pharmacokinetics)
Set-up: species or system S.D. rats
Conditions: male, S.D., plasma; rat; oral 60 mg/kg; 0-24 hours
endpoint: AUC(0-t) (ng·h/mL)
Write the answer as a number in ng·h/mL, unit excluded.

Task: # lookup: AUC(0-t) of CO[C@H]1C(=O)[C@]2(C)[C@@H](OC(=O)N(C)C)C[C@H]3OC[C@@]3(OC(C)=O)[C@H]2[C@H](OC(=O)c2ccccc2)[C@]2(O)C[C@H](OC(=O)[C@H](O)[C@@H](NC(=O)OC(C)(C)C)c3ccccc3)C(C)=C1C2(C)C
Result: 4250

====

System: HT29 colon cancer
Assay: MTT assay, proliferation inhibition
Format: cell-based
Settings: Homo sapiens, HT-29, read-out: Proliferation inhibition rate
Please go through the items and note down their inhibition at 1 µM.
Give the value in % but do not write % after it.

Task: inhibition at 1 µM lookup needed for CO[C@H]1C(=O)[C@]2(C)C=C[C@@H](O)[C@](CO)(OC(C)=O)[C@H]2[C@H](OC(=O)c2ccccc2)[C@]2(O)C[C@H](OC(=O)[C@H](O)[C@@H](NC(=O)OC(C)(C)C)c3ccccc3)C(C)=C1C2(C)C , thanks.
Result: 88.3

Task: Another molecule: CCSC(=O)O[C@H]1C(=O)[C@]2(C)[C@@H](OC)C[C@H]3OC[C@@]3(OC(C)=O)[C@H]2[C@H](OC(=O)c2ccccc2)[C@]2(O)C[C@H](OC(=O)[C@H](O)[C@@H](NC(=O)OC(C)(C)C)c3ccccc3)C(C)=C1C2(C)C
Result: 87.8

Task: Next entry: CO[C@H]1C(=O)[C@]2(C)[C@@H](OC(=O)N(C)C)C[C@H]3OC[C@@]3(OC(C)=O)[C@H]2[C@H](OC(=O)c2ccccc2)[C@]2(O)C[C@H](OC(=O)[C@H](O)[C@@H](NC(=O)N(C)C)c3ccccc3)C(C)=C1C2(C)C
Result: 87.3

Task: Next up: CCSC(=O)O[C@H]1C[C@H]2OC[C@@]2(OC(C)=O)[C@H]2[C@H](OC(=O)c3ccccc3)[C@]3(O)C[C@H](OC(=O)[C@H](O)[C@@H](NC(=O)N(C)C)c4ccccc4)C(C)=C([C@@H](OC)C(=O)[C@]12C)C3(C)C
Result: 87.2

====

Experiment: MTT assay, proliferation inhibition
Format: cell-based
Details: Homo sapiens, LN-18 gastric cancer, read-out: Proliferation inhibition rate
Provide the reported inhibition at 1 µM of each item.
Numeric answer plus unit only.

Task: Quick one: inhibition at 1 µM of COC(=O)O[C@H]1C[C@H]2OC[C@@]2(OC(C)=O)[C@H]2[C@H](OC(=O)c3ccccc3)[C@]3(O)C[C@H](OC(=O)[C@H](O)[C@H](CC(C)C)NC(=O)OC(C)(C)C)C(C)=C([C@@H](OC)C(=O)[C@]12C)C3(C)C [PCMI-39] ?
Result: 94.1%

Task: Try this compound too: COC(=O)O[C@H]1C[C@H]2OC[C@@]2(OC(C)=O)[C@H]2[C@H](OC(=O)c3ccccc3)[C@]3(O)C[C@H](OC(=O)[C@H](O)[C@@H](NC(=O)OC(C)(C)C)c4ccccn4)C(C)=C([C@@H](OC)C(=O)[C@]12C)C3(C)C [PCMI-38]
Result: 96.6%

Task: Also need COC(=O)O[C@H]1C[C@H]2OC[C@@]2(OC(C)=O)[C@H]2[C@H](OC(=O)c3ccccc3)[C@]3(O)C[C@H](OC(=O)[C@H](O)[C@@H](NC(=O)OC(C)(C)C)c4ccccc4)C(C)=C([C@@H](OC)C(=O)[C@]12C)C3(C)C [PCMI-36] , thanks.
Result: 95.9%

Task: # iterate: CO[C@H]1C(=O)[C@]2(C)CC[C@H]3OC[C@@]3(OC(C)=O)[C@H]2[C@H](OC(=O)c2ccccc2)[C@]2(O)C[C@H](OC(=O)[C@H](O)[C@H](CC(C)C)NC(=O)OC(C)(C)C)C(C)=C1C2(C)C [PCMI-42]
Result: 94.8%

====

Test system: HT29 colon cancer
Assay: MTT assay, proliferation inhibition
Format: cell-based
Conditions: Homo sapiens, HT-29, read-out: Proliferation inhibition rate
endpoint: inhibition at 1 µM (%)
Give your result in % as a bare value.

Task: Notebook entry, HT29 colon cancer assay: inhibition at 1 µM of COC(=O)O[C@H]1C(=O)[C@]2(C)[C@@H](OC)C[C@H]3OC[C@@]3(OC(C)=O)[C@H]2[C@H](OC(=O)c2ccccc2)[C@]2(O)C[C@H](OC(=O)[C@H](O)[C@@H](NC(=O)c3ccccc3)c3ccccc3)C(C)=C1C2(C)C = ?
Result: 87.3

Task: # repeat for CO[C@H]1C[C@H]2OC[C@@]2(OC(C)=O)[C@H]2[C@H](OC(=O)c3ccccc3)[C@]3(O)C[C@H](OC(=O)[C@H](O)[C@H](CC(C)C)NC(=O)OC(C)(C)C)C(C)=C([C@@H](OC(=O)N(C)C)C(=O)[C@]12C)C3(C)C
Result: 87.3

Task: // next record COC(=O)O[C@H]1C[C@H]2OC[C@@]2(OC(C)=O)[C@H]2[C@H](OC(=O)c3ccccc3)[C@]3(O)C[C@H](OC(=O)[C@H](O)[C@H](CC(C)C)NC(=O)OC(C)(C)C)C(C)=C([C@@H](OC)C(=O)[C@]12C)C3(C)C
Result: 88.4

Task: // repeat for CC(=O)O[C@H]1C(=O)[C@@]2(C)[C@H]([C@H](OC(=O)c3ccccc3)[C@]3(O)C[C@H](OC(=O)[C@H](O)[C@@H](NC(=O)c4ccccc4)c4ccccc4)C(C)=C1C3(C)C)[C@]1(OC(C)=O)CO[C@@H]1C[C@@H]2O [Paclitaxel, reference compound] and report
Result: 88.4

Task: For CO[C@H]1C(=O)[C@]2(C)C=C[C@@H](O)[C@](CO)(OC(C)=O)[C@H]2[C@H](OC(=O)c2ccccc2)[C@]2(O)C[C@H](OC(=O)[C@H](O)[C@@H](NC(=O)c3ccccc3)c3ccccc3)C(C)=C1C2(C)C then?
Result: 36.4

Task: Also, COC(=O)O[C@H]1C(=O)[C@]2(C)[C@@H](OC)C[C@H]3OC[C@@]3(OC(C)=O)[C@H]2[C@H](OC(=O)c2ccccc2)[C@]2(O)C[C@H](OC(=O)[C@H](O)[C@H](CC(C)C)NC(=O)OC(C)(C)C)C(C)=C1C2(C)C please.
Result: 89.1

Task: Check CO[C@H]1C(=O)[C@]2(C)[C@@H](OC(=O)N(C)C)C[C@H]3OC[C@@]3(OC(C)=O)[C@H]2[C@H](OC(=O)c2ccccc2)[C@]2(O)C[C@H](OC(=O)[C@H](O)[C@@H](NC(=O)c3ccccc3)c3ccccc3)C(C)=C1C2(C)C too.
Result: 89.8

Task: Repeat for the following molecule: CO[C@H]1C[C@H]2OC[C@@]2(OC(C)=O)[C@H]2[C@H](OC(=O)c3ccccc3)[C@]3(O)C[C@H](OC(=O)[C@H](O)[C@@H](NC(=O)OC(C)(C)C)c4ccccn4)C(C)=C([C@@H](OC(=O)N(C)C)C(=O)[C@]12C)C3(C)C
Result: 88.1
